tested on: MDA-MB-231 breast; test: NCI-60 one-dose screen, 48 h (100 = growth as untreated, 0 = no growth, -100 = all killed); details: 10 µM unless noted
Compounds without any hit were thinned out: in the full panel of roughly 83,000, 20% have a hit.
Please note: growth exactly at 70% is F. Only values below 70% get T.

COMPOUND: COc1ccccc1/C=C1\Oc2cc(OCCN3CCC(Cc4ccccc4)CC3)ccc2C1=O
TARGET SYSTEM: MDA-MB-231 breast
ASSIGNED LABEL: F

Query block: Dear reviewer, please state whether N/C(=N\c1nc2ccccc2s1)NC(=O)Nc1cccc2ccccc12 has growth strictly beneath 70%.
Result block: T

Query block: Given CCCCOc1ccc(/C=N/NC(N)=S)cc1 , is recorded growth strictly lower than 70%?
Result block: T

Query block: Check if growth falls below 70% for O=C(Cc1ccc2c(c1)OCCO2)Nc1nc2ccc(F)cc2s1 .
Result block: F

meta.source: PubChem BioAssay (NCI)
